- Tested on: LNCaP human prostate cancer cell line
- Test Name: Cytotoxicity (SRB) assay, LNCaP
- Format: cell-based
- Conditions: Homo sapiens, LNCaP, Table 13A; read-out: inhibitory effects, LNCaP
- Excerpt: Cells were stained with SRB solution.
Hi! Just check whether IC50 is below 0.05 µM. Below gives class 1, equal or above gives class 0.

Query: Does this molecule meet the criterion IC50 < 0.05 µM? COc1cc(C(=O)c2nc(-c3ccccc3)cn2C(C)C)cc(OC)c1OC [70ac]
Reply: class 0

Query: Does this molecule meet the criterion IC50 < 0.05 µM? CCn1cc(-c2ccccc2)nc1C(=O)c1cc(OC)c(OC)c(OC)c1 [70n]
Reply: class 1

Query: Does this molecule meet the criterion IC50 < 0.05 µM? COc1cc(C(=O)c2nc(-c3ccccc3)cn2Cc2ccccc2)cc(OC)c1OC [70o]
Reply: class 0

Query: Does this molecule meet the criterion IC50 < 0.05 µM? COc1cc(C(=O)c2nc(-c3ccccc3)c[nH]2)cc(OC)c1OC [70a]
Reply: class 1

Query: Does this molecule meet the criterion IC50 < 0.05 µM? COc1cc(C(=O)c2nc(-c3ccccc3)cn2-c2ccccn2)cc(OC)c1OC [70ad]
Reply: class 1

----------
- Test system: PC-3 human prostate cancer cell line
- Test Name: cells
- Conditions: Homo sapiens, read-out: IC50 PC-3, SRB assay, prostate cancer PC-3
Each entry belongs to exactly one class, chosen by where its IC50 falls: low class: < 20 nM; middle class: ≥ 20 nM and < 60 nM; high class: ≥ 60 nM

Here are 5 compounds together with their reported answers.
INSERT INTO results (compound, group_label) VALUES
  ('CC(=O)O[C@@]12CO[C@@H]1C[C@H](O)[C@@]1(C)C(=O)[C@H](O)C3=C(C)[C@@H](OC(=O)[C@H](O)[C@@H](NC(=O)OC(C)(C)C)c4ccccc4)C[C@@](O)([C@@H](OC(=O)c4ccccc4)[C@H]21)C3(C)C [docetaxel, reference compound]', 'low class'),
  ('COc1cc(C(=O)c2csc(Nc3ccc4[nH]ccc4c3)n2)cc(OC)c1OC', 'low class'),
  ('COc1cc(C(=O)C2N(C)C=C(c3ccccc3)N2C)cc(OC)c1OC (centres unmarked)', 'high class'),
  ('COc1cc(C(=O)c2csc(-c3ccc(CN(C)C)cc3)n2)cc(OC)c1OC.Cl [2u, hydrochloride]', 'high class'),
  ('COc1cc(C(O)c2csc(-c3ccccc3)n2)cc(OC)c1OC (centres unmarked)', 'high class');

Query: Bin this entry: COc1cc(C(=O)c2csc(-c3ccc(CNC(=O)OC(C)(C)C)cc3)n2)cc(OC)c1OC [68a]
Reply: high class

Query: Bin this entry: `COc1cc(C(=O)c2cccc(-c3ccccc3)n2)cc(OC)c1OC`
Reply: middle class

Query: Bin this entry: CO/N=C(/c1cc(OC)c(OC)c(OC)c1)c1csc(-c2ccccc2)n1 [2f-cis]
Reply: high class

Query: Bin this entry: `COc1cc(Sc2cccc(-c3ccccc3)c2)cc(OC)c1OC`
Reply: high class

Query: Bin this entry: `COc1cc(S(=O)(=O)c2cccc(-c3ccccc3)c2)cc(OC)c1OC`
Reply: high class

Query: Bin this entry: COc1cc(/C(=N/O)c2csc(-c3ccccc3)n2)cc(OC)c1OC [2e-cis]
Reply: high class

Query: Bin this entry: `COc1cc(C(=O)c2cn(C(c3ccccc3)(c3ccccc3)c3ccccc3)c(Nc3ccccc3)n2)cc(OC)c1OC`
Reply: high class

Query: Bin this entry: COc1cc(C(=O)c2csc(-c3ccc4[nH]ccc4c3)n2)cc(OC)c1OC [66a]
Reply: low class

Query: Bin this entry: `COc1cc(C(=O)c2ccc(-c3ccccc3)o2)cc(OC)c1OC`
Reply: middle class

Query: Bin this entry: `COc1cc(C(=O)Nc2csc(-c3ccccc3)n2)cc(OC)c1OC`
Reply: high class

----------
- System: PC-3 human prostate cancer cell line
- Test Name: cells
- Conditions: Homo sapiens, read-out: IC50 ± SEM, PC-3, Table 13
pIC50: −log10 of the molar value.
In this section we review reported pIC50 values for a set of molecules.

Recorded results for 10 molecules are shown here.
INSERT INTO assay_data (molecule, value_reported) VALUES
  ('Cc1ccc(C(=O)c2cn(S(=O)(=O)c3ccccc3)c(-c3ccccc3)n2)cc1 [11ah]', '< 5.00'),
  ('COc1cc(C(=O)c2cn(S(=O)(=O)c3ccccc3)c(-c3cc(OC)c(OC)c(OC)c3)n2)cc(OC)c1OC [11ea]', '< 5.00'),
  ('COc1cc(C(=O)c2cn(S(=O)(=O)c3ccccc3)c(-c3ccccc3C(F)(F)F)n2)cc(OC)c1OC [11ia]', '< 5.00'),
  ('O=C(c1cccc(F)c1)c1cn(S(=O)(=O)c2ccccc2)c(-c2ccccc2)n1 [11ag]', '< 5.00'),
  ('O=C(c1ccc(F)cc1)c1cn(S(=O)(=O)c2ccccc2)c(-c2ccccc2C(F)(F)F)n1 [11ib]', '< 5.00'),
  ('COc1cccc(C(=O)c2cn(S(=O)(=O)c3ccccc3)c(-c3ccccc3)n2)c1 [11ac]', '< 5.00'),
  ('Cc1ccc(-c2nc(C(=O)c3ccc(F)cc3)cn2S(=O)(=O)c2ccccc2)cc1 [11db]', 7.10),
  ('COc1ccc(C(=O)c2cn(S(=O)(=O)c3ccccc3)c(-c3ccccc3)n2)cc1 [11ab]', '< 5.00'),
  ('COc1ccc(-c2nc(C(=O)c3ccc(F)cc3)cn2C)cc1 [12cba]', '< 5.00'),
  ('COc1cc(-c2nc(C(=O)c3ccc(F)cc3)cn2S(=O)(=O)c2ccccc2)cc(OC)c1OC [11eb]', '< 5.00');

Query: Consider the molecule shown here: COc1ccc(-c2nc(C(=O)c3ccc(F)cc3)cn2S(=O)(=O)c2ccccc2)cc1OC [11hb] What is its recorded pIC50?
Reply: 5.00

----------
- System: PC-3 human prostate cancer cell line
- Test Name: cells
- Conditions: Homo sapiens, read-out: IC50 PC-3
In this section we review reported IC50 values for a set of molecules.
Give a bare numeral; the unit nM is implied.

Recorded results for 2 molecules are shown here.
INSERT INTO measurements (molecule, value_reported) VALUES
  ('COc1cc(C(=O)c2csc(-c3cc4ccccc4[nH]3)n2)cc(OC)c1OC [62a]', 24),
  ('COc1cc(C(=O)[C@@H]2CSC(c3ccc(O[Si](C)(C)C(C)(C)C)cc3)=N2)cc(OC)c1OC [58a]', 183);

Query: Consider the molecule shown here: COc1cc(/C(=C/C#N)c2csc(-c3ccccc3)n2)cc(OC)c1OC [2c-trans] What is its recorded IC50?
Reply: 890

----------
- Test system: LNCaP human prostate cancer cell line
- Test Name: Cytotoxicity (SRB) assay, LNCaP
- Assay type: cell-based
- Conditions: Homo sapiens, LNCaP, read-out: inhibitory effects, LNCaP
Measured Endpoint: pIC50
Quick note: pIC50 means taking -log10 of the concentration in moles per liter.

Query: Consider the molecule shown here: CCCn1cc(-c2ccccc2)nc1C(=O)c1cc(OC)c(OC)c(OC)c1 [70ab] What is its recorded pIC50?
Reply: 7.31

----------
- Test system: PPC-1 human prostate cancer cell line
- Test Name: Cytotoxicity (SRB) assay, PPC-1
- Format: cell-based
- Conditions: Homo sapiens, PPC-1, read-out: IC50 ± SEM, PPC-1
Measured Endpoint: pIC50
Quick note: pIC50 means taking -log10 of the concentration in moles per liter.

Query: Consider the compound shown here: COc1cc(C(=O)c2cccc(-c3cc(OC)c(OC)c(OC)c3)c2)cc(OC)c1OC [compound 35] What is its recorded pIC50?
Reply: 4.82

Query: Consider the compound shown here: COc1cc(C(=O)c2csc(-c3cccs3)n2)cc(OC)c1OC [compound 25] What is its recorded pIC50?
Reply: 7.89

Query: Consider the compound shown here: COc1cc(C(=O)c2csc(-c3ccc(N)cc3)n2)cc(OC)c1OC [compound 26] What is its recorded pIC50?
Reply: 7.82

----------
- Test Name: in vivo
- Conditions: male, ICR, mouse, plasma, iv, 15 mg/kg
Measured Endpoint: clearance

Query: Consider the compound shown here: COc1cc(C(=O)c2csc(-c3ccc(O)cc3)n2)cc(OC)c1OC [2l] What is its recorded clearance?
Reply: 90 mL/min/kg

----------
In this section we review reported IC50 values for a set of compounds.
- System: PC-3 human prostate cancer cell line
- Test Name: cells
- Conditions: Homo sapiens, read-out: IC50 PC-3, SRB assay, prostate cancer PC-3
- Description: Cells were stained with SRB solution.
Give a bare numeral; the unit nM is implied.

Recorded results for 3 compounds are shown here.
INSERT INTO measurements (compound, value_reported) VALUES
  ('COc1cc(C(=O)c2cc(-c3ccccc3)n[nH]2)cc(OC)c1OC', 101),
  ('COc1cc(C(=O)c2csc(Nc3ccc(F)cc3)n2)cc(OC)c1OC', 43),
  ('COc1cc(C(=O)c2csc(-c3ccc(CN)cc3)n2)cc(OC)c1OC.Cl [2r, hydrochloride]', 80);

Turning now to a further compound:
Query: Please provide the recorded IC50 for `COc1cc(C(=O)c2cc(-c3ccccc3)ncn2)cc(OC)c1OC` , tested on PC-3 human prostate cancer cell line.
Reply: 8300

Hey, just so you know, these numbers are from patent US11465987B2.
